Reference source: the SangsterLogP compilation

assay: method code SF, from DOI: 10.1016/0360-3016(89)90899-7, PMID: 2703405; conditions: pH 7.4
In this section we review reported logD values for a set of molecules.
Lab note: write the figure by itself, no unit.

[
  {
    "chemical smiles": "Cc1ccc2c(c1)[n+]([O-])nc(N)[n+]2[O-]",
    "logD": 0.2
  },
  {
    "chemical smiles": "Nc1n[n+]([O-])c2ccc(Cl)cc2[n+]1[O-]",
    "logD": 0.41
  },
  {
    "chemical smiles": "C=CCOc1ccc2c(c1)[n+]([O-])nc(N)[n+]2[O-]",
    "logD": 0.76
  },
  {
    "chemical smiles": "CC(=O)Nc1n[n+]([O-])c2cc(C)ccc2[n+]1[O-]",
    "logD": -0.4
  },
  {
    "chemical smiles": "COc1n[n+]([O-])c2ccccc2[n+]1[O-]",
    "logD": -0.3
  }
]

// recorded logD for COc1ccc2c(c1)[n+]([O-])c(N)n[n+]2[O-] : 0
